Test: chemical genetic growth profiling, strain panel (AID 1159580);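 also: tested at 20 µM; growth read once vehicle control cultures reached saturation at 30 °C; 1 = growth at the plate median or of vehicle wells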
Conditions: S. cerevisiae deletion strains, growth OD, locus YNL183C, strain NPR1, stronger effect = lower value
In all, about 5,500 compounds went through this assay and about 2,000 (36%) were called active. Another 18% or so got no clear call; they are omitted. Some of the results follow.
Each entry below carries its recorded normalized growth.
Provide a numeric answer; units are not to be included.

Answered examples (2):
{"columns": ["MOLECULE_SMILES", "normalized growth"],
 "data": [
  ["NCC(=O)CCC(=O)O", 0.986],
  ["CCCCC1C(=O)N(c2ccccc2)N(c2ccccc2)C1=O", 0.946]
]}

Now for another entry.
Asked: What normalized growth value was documented for this compound, Cc1cc2cc3c(C)cc(=O)oc3c(C)c2o1 ?
Given back: 0.924

----------
Assay: chemical genetic growth profiling, strain panel (AID 1159580)
Settings: S. cerevisiae deletion strains, growth OD, locus YPL256C, strain CLN2, stronger effect = lower value
Among all 5,500 compounds or so, about 2,000 (36%) were called active. Not shown: some 18% with an inconclusive outcome. Some of the results follow.
ASSAY_READOUT: normalized growth
Provide a numeric answer; units are not to be included.

Answered examples (8):
{"columns": ["COMPOUND", "normalized growth"],
 "data": [
  ["CCC(CCC(C)[C@H]1CCC2C3CC=C4C[C@@H](O)CC[C@]4(C)C3CC[C@@]21C)C(C)C (stereo not given in full)", 0.989],
  ["COc1ccc(-c2cc(=O)c3ccccc3o2)cc1", 1.02],
  ["N=c1ccc2nc3c(Cl)c4c(c(Cl)c3oc-2c1S(=O)(=O)O)Nc1ccc(N)c(S(=O)(=O)O)c1O4", 0.998],
  ["O=C(O)/C=C(\\CC(=O)O)C(=O)O", 1],
  ["C=C1C(N)CC2CC1C2(C)C (stereo not given)", 1.01],
  ["O=c1cc(-c2ccc(O)cc2)oc2ccc(O)cc12", 0.973],
  ["NS(=O)(=O)c1cc2c(cc1C(F)(F)F)NCNS2(=O)=O", 0.976],
  ["COc1c(O)cccc1O", 1.01]
]}

Asked: What normalized growth value was documented for this compound, Clc1ccccc1N/N=C\Cc1nnnn1-c1ccccc1 ?
Given back: 0.99

Asked: What normalized growth value was documented for this compound, CC(=O)[C@H]1CCC2C3CC=C4C[C@@H](OC(=O)CCC(=O)O)CC[C@]4(C)C3CC[C@@]21C (stereo not given in full) ?
Given back: 0.991

Asked: What normalized growth value was documented for this compound, COc1c2c(cc3c1OCO3)CC[N+](C)=C2 ?
Given back: 0.975

Asked: What normalized growth value was documented for this compound, CC(=O)[C@H]1CCC2C3CC=C4C[C@@H](O)CC[C@]4(C)C3CC[C@@]21C (stereo not given in full) ?
Given back: 1.02

Asked: What normalized growth value was documented for this compound, CCn1nc(C)cc1-c1nnc(Sc2ncc([N+](=O)[O-])s2)n1C ?
Given back: 0.984

Asked: What normalized growth value was documented for this compound, CC(C)(C)c1cc2nc(C(F)(F)F)cc(NNC(=O)c3ccc(Cl)cc3)n2n1 ?
Given back: 0.994

Asked: What normalized growth value was documented for this compound, Nc1nc(N)c2nc(-c3ccccc3)c(N)nc2n1 ?
Given back: 0.99

Asked: What normalized growth value was documented for this compound, CCOC(=O)C1C(C=C(C)C)C1(C)C (stereo not given) ?
Given back: 1.02

Asked: What normalized growth value was documented for this compound, O=C(O)c1nc2cc(Cl)c(Cl)cc2[nH]c1=O ?
Given back: 0.994

Asked: What normalized growth value was documented for this compound, O=C(/C=C/c1ccccc1)c1ccc(O)cc1 ?
Given back: 0.978

Asked: What normalized growth value was documented for this compound, COc1cc([C@@H]2c3cc4c(cc3[C@H](OC(C)=O)[C@H]3COC(=O)[C@H]23)OCO4)cc(OC)c1OC ?
Given back: 0.986

Asked: What normalized growth value was documented for this compound, CC(O)(CNCc1ccc(Cl)cc1)CSc1ccccc1Cl (stereo not given) ?
Given back: 1.01

----------
Each entry below carries its recorded normalized growth.
Assay: chemical genetic growth profiling, strain panel (AID 1159580)
Conditions: S. cerevisiae deletion strains, growth OD, locus YML120C, strain ndi1, stronger effect = lower value
Screen size: about 5,500 compounds; about 2,000 (36%) were called active. Roughly 18% stayed inconclusive and do not appear here. This is one part of the list.

{"columns": ["MOLECULE_SMILES", "VALUE_MEASURED"],
 "data": [
  ["Nc1nnc(-c2cccc(Cl)c2Cl)c(N)n1", "0.994 (inactive)"]
]}

Asked: What normalized growth value was documented for this molecule, O=c1c(-c2ccc(O)cc2)coc2cc(O)cc(O)c12 ?
Given back: 1.02 (inactive)

Asked: What normalized growth value was documented for this molecule, CNCCC=C1c2ccccc2CCc2ccccc21 ?
Given back: 0.986 (inactive)

----------
Assay: chemical genetic growth profiling, strain panel (AID 1159580);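 also: tested at 20 µM; growth read once vehicle control cultures reached saturation at 30 °C; 1 = growth at the plate median or of vehicle wells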
Conditions: S. cerevisiae deletion strains, growth OD, locus YNL183C, strain NPR1
In all, about 5,500 compounds went through this assay and about 2,000 (36%) were called active. Inconclusive results (about 18%) are left out. No stated cut-off is given here; in the data, active means normalized growth mostly below about 0.91 (no sharp cut-off); inconclusive means no clear call, values can overlap the other calls; inactive means mostly above about 0.92. The list shows a part of the results.
Lab note: assign the record to one of class 1 for active, class 0 for inactive

For orientation, consider the following solved cases.
{"columns": ["COMPOUND", "QUALITATIVE_LABEL"],
 "data": [
  ["COc1cccc2c1cc([N+](=O)[O-])c1c(C(=O)O)cc3c(c12)OCO3", "class 0"],
  ["CC(C)c1ccc2c(c1O)CC[C@H]1C3=C(CC[C@]21C)C(=O)OC3", "class 0"],
  ["COc1ccc(-c2cc(=O)c3c(OC(C)=O)cc(OC(C)=O)cc3o2)cc1", "class 0"],
  ["NC(=O)CC[C@@H](N)C(=O)O", "class 0"],
  ["O=C(O)c1nc2cc(Cl)c(Cl)cc2[nH]c1=O", "class 0"]
]}

Asked: Give the logged outcome of this assay for the following compound: CC1=C2C(=CO[C@H](C)[C@H]2C)C(=O)C(C(=O)O)=C1O
Given back: class 1

Asked: Give the logged outcome of this assay for the following compound: N/C(CSc1ncccc1C(F)(F)F)=N/OC(=O)Nc1cccc(Cl)c1
Given back: class 1

Asked: Give the logged outcome of this assay for the following compound: COc1cc(-c2coc3cc(O)c(OC)c(O)c3c2=O)cc(O)c1OC
Given back: class 0

Asked: Give the logged outcome of this assay for the following compound: CN(N=O)C(=O)N[C@@H]1[C@@H](O)[C@H](O)[C@@H](CO)O[C@@H]1O
Given back: class 0

Asked: Give the logged outcome of this assay for the following compound: N[C@@H]1CONC1=O
Given back: class 0

Asked: Give the logged outcome of this assay for the following compound: C[N+]12CC[C@@]34c5ccccc5N5C(=O)CC6OCC=C(C1)[C@H](CC32)[C@@H]6C54 (stereo not given in full)
Given back: class 0

----------
Test: chemical genetic growth profiling, strain panel (AID 1159580);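 also: tested at 20 µM; growth read once vehicle control cultures reached saturation at 30 °C; 1 = growth at the plate median or of vehicle wells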
Conditions: S. cerevisiae deletion strains, growth OD, locus YPL256C, strain CLN2, stronger effect = lower value
The whole screen tested about 5,500 compounds, of which about 2,000 (36%) were called active. Inconclusive results (about 18%) are left out. The list shows a part of the results.
Each entry below carries its recorded normalized growth.
Provide a numeric answer; units are not to be included.

Answered examples (5):
{"columns": ["COMPOUND", "normalized growth"],
 "data": [
  ["CCCc1cnc(N2CCN(CC(=O)N(c3ccccc3)C3CCCCC3)CC2)nc1", 0.968],
  ["Cn1c(=O)c2[nH]c(C3CCCC3)nc2n(C)c1=O", 0.953],
  ["O=C(NCc1cccs1)c1csc(Cc2c(Cl)cccc2Cl)n1", 0.985],
  ["COC(=O)C1=C(C)NC(C)=C(C(=O)OCCN(C)Cc2ccccc2)C1c1cccc([N+](=O)[O-])c1 (stereo unspecified)", 0.957],
  ["COC(=O)C1=C(C)NC(C)=C(C(=O)OCC(C)C)C1c1ccccc1[N+](=O)[O-] (stereo unspecified)", 0.415]
]}

Asked: What normalized growth value was documented for this compound, COc1cc2c3cc1Oc1cc(ccc1O)C[C@@H]1c4c(cc(OC)c(O)c4Oc4ccc(cc4)C[C@@H]3N(C)CC2)CC[N+]1(C)C ?
Given back: 0.99

Asked: What normalized growth value was documented for this compound, COc1cc([C@@H]2c3cc4c(cc3C(O[C@@H]3O[C@@H]5CO[C@@H](c6cccs6)OC5[C@H](O)[C@H]3O)C3COC(=O)[C@@H]32)OCO4)cc(OC)c1O (stereo partly specified) ?
Given back: 1.03

----------
Each entry below carries its recorded normalized growth.
Assay: chemical genetic growth profiling, strain panel (AID 1159580);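 also: tested at 20 µM; growth read once vehicle control cultures reached saturation at 30 °C; 1 = growth at the plate median or of vehicle wells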
Details: S. cerevisiae deletion strains, growth OD, locus YKL160W, strain elf1, stronger effect = lower value
Hit rate of the full screen: of about 5,500 compounds, about 2,000 (36%) were called active. Not shown: some 18% with an inconclusive outcome. The list shows a part of the results.
Provide a numeric answer; units are not to be included.

Answered examples (6):
{"columns": ["COMPOUND", "normalized growth"],
 "data": [
  ["CCCCC1C(=O)N(c2ccccc2)N(c2ccccc2)C1=O", 1.01],
  ["NCCc1ccc(O)cc1", 1.01],
  ["COc1ccc(-c2coc3cc(OC(C)=O)cc(OC(C)=O)c3c2=O)cc1", 0.988],
  ["NS(=O)(=O)c1cc2c(cc1C(F)(F)F)NCNS2(=O)=O", 0.986],
  ["CC(=O)O[C@H]1C[C@H](O[C@H]2[C@@H](O)C[C@H](O[C@H]3[C@@H](O)C[C@H](O[C@H]4CC[C@@]5(C)C(CCC6C5C[C@@H](O)[C@]5(C)[C@@H](C7=CC(=O)OC7)CC[C@]65O)C4)O[C@@H]3C)O[C@@H]2C)O[C@H](C)[C@H]1O[C@@H]1O[C@H](CO)[C@@H](O)[C@H](O)[C@H]1O (stereo not given in full)", 1.01],
  ["CC(=O)O[C@H]1C[C@@H](O)C(C)(C)C2C[C@@H](OC(C)=O)[C@]3(C)C(CC[C@@]4(C)[C@H](c5ccoc5)OC(=O)C5OC543)[C@]21C (stereo not given in full)", 1.01]
]}

Asked: What normalized growth value was documented for this compound, O=C1CN2Cc3c(ccc(Cl)c3Cl)N=C2N1 ?
Given back: 0.996

Asked: What normalized growth value was documented for this compound, CC(=O)O[C@@H]1CC2C(C)(C)CCC(=O)[C@]2(C)C2CC[C@@]3(C)[C@H](c4ccoc4)OC(=O)C4OC43[C@@]21C (stereo not given in full) ?
Given back: 1.02
